All values here come from ChEMBL document CHEMBL2413049.

target: Vitamin D3 receptor (Bos taurus) (UniProt Q28037); experiment: Displacement of [3H]-1alpha,25 dihydroxyvitamin D3 from bovine thymus VDR after 60 mins relative to 1alpha,25-dihydroxyvitamin D3
Could you please mark true for values of fold change (FC) below 0.04 and false for values at or above it?

>  <structure>
C=C1/C(=C\C=C2/CCC[C@]3(C)[C@@H]([C@H](C)CCCC(C)(C)O)CC[C@@H]23)C[C@@H](O)C[C@@H]1O

>  <answer-label>
false

$$$$
>  <structure>
C=C1/C(=C\C=C2/CCC[C@]3(C)[C@@H]([C@H](C)CCCC(C)(C)O)CC[C@@H]23)C[C@@H](O)C2(COC2)[C@@H]1O

>  <answer-label>
false

$$$$
>  <structure>
C=C1/C(=C\C=C2/CCC[C@]3(C)[C@@H]([C@H](C)CCCC(C)(C)O)CC[C@@H]23)C[C@@H](O)C2(COC2)[C@H]1O

>  <answer-label>
true

$$$$
>  <structure>
C=C1/C(=C\C=C2/CCC[C@]3(C)[C@@H]([C@H](C)CCCC(C)(C)O)CC[C@@H]23)C[C@H](O)C2(COC2)[C@H]1O

>  <answer-label>
true

$$$$
